# target desc: T1, human CD8αα homodimer, recombinant protein (Acro Biosystems) (human, UniProt P01732 22-182)
# T1 construct: also called CD8αα antigen; biotinylated CD8α recombinant protein (CDA-H82E3)
# T1 sequence (P01732 22-182 limits assumed): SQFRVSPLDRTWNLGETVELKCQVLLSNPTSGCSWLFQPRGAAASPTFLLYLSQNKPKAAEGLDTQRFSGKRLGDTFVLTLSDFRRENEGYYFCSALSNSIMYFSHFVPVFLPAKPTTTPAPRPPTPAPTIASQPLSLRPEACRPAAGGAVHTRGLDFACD
# measurement notes: BLI kinetics, F(ab) on biotinylated CD8α (SA-XT sensor), 1:1 fit, 37 °C [CONT'ED]

binder	kon, M⁻¹ s⁻¹
CBD1037 (Fab, V domains shown, also called h1017-H4/L2 F(ab)) VH: QVQLVQSGAEVKKPGASVKVSCKASRYTFTDYNLHWVRQAPGQGLEWMGFIYPYNGGTGYAQKFQGRVTMTVDYSTSTAYMELSSLRSEDTAVYYCARDHRYNEGVSFDYWGQGTTVTVSS VL: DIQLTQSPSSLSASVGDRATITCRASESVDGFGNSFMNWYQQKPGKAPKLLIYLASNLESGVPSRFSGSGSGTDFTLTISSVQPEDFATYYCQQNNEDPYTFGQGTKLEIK	76800
CBD1038 (Fab, V domains shown, also called h1017-H4/L3 F(ab)) VH: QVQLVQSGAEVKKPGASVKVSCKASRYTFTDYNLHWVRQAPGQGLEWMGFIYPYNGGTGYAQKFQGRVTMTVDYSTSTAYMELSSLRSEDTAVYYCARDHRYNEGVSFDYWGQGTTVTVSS VL: DIQLTQSPSSLSASVGDRATITCRASESVDGFGNSFMNWYQQKPGKAPKLLIYLASNLESGVPSRFSGSGSRTDFTLTISSVQPEDFATYYCQQNNEDPYTFGQGTKLEIK	18900
CBD1034 (Fab, V domains shown, also called h1017-H2/L3 F(ab)) VH: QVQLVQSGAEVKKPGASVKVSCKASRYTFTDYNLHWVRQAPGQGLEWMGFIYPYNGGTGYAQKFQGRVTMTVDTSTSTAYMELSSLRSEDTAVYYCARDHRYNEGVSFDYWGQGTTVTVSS VL: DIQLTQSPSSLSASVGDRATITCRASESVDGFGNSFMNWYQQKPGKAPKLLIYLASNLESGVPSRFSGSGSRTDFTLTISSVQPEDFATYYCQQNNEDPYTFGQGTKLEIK	103000
